tested-on: Furin (Homo sapiens)
Construct: Purification of Soluble Furin; inferred from purification by Ni2+-chelating chromatography and imidazole elution
Sequence (P09958 108-715 limits assumed): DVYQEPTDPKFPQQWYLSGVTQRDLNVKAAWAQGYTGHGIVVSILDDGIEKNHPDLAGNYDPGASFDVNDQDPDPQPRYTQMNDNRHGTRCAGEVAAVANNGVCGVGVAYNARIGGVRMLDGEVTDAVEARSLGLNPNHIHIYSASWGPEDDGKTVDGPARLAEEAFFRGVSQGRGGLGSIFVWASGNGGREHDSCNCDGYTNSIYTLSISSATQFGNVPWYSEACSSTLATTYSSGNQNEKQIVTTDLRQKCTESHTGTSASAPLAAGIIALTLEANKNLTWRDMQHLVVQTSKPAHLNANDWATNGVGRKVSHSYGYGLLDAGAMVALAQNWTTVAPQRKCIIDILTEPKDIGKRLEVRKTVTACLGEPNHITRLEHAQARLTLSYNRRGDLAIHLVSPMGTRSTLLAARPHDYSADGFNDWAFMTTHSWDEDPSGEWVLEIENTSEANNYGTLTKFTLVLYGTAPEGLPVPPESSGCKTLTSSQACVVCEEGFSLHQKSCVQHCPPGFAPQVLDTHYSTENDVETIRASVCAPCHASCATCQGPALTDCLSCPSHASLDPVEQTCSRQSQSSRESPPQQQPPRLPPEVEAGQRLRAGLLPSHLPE
assay-explanation: Furin enzymatic assay, IC50 determination with Pyr-RTKR-AMC substrate
experimental-setup: furin 50 nM, Pyr-RTKR-AMC 25 μM, 30 min preincubation; read-out: IC50 against Furin
measured-parameter: IC50 (nM)

>>> measured_number("CC(=O)N[C@@H](CCCNC(=N)N)C(=O)N[C@H](C(=O)N[C@@H](Cc1ccc(N=C(N)N)cc1)C(=O)NCc1ccc(C(=N)N)cc1F)C(C)C [Compound C]")
9
>>> measured_number("CC(C)[C@H](NS(=O)(=O)Cc1ccc(C(=N)N)cc1)C(=O)N[C@@H](CCCNC(=N)N)C(=O)NCc1ccc(C(=N)N)cc1 [Compound E]")
300
>>> measured_number("CC(=O)N[C@@H](CCCNC(=N)N)C(=O)N[C@H](C(=O)N[C@@H](Cc1ccc(N=C(N)N)cc1)C(=O)NCc1ccc(C(=N)N)cc1)C(C)C [Compound A]")
7

A. CC(=O)N[C@@H](CCCNC(=N)N)C(=O)N[C@H](C(=O)N[C@@H](Cc1ccc(N=C(N)N)cc1)C(=O)NCc1ccc(/C(N)=N/O)cc1)C(C)C [Compound D]
B. CC(=O)N[C@@H](CCCNC(=N)N)C(=O)N[C@H](C(=O)N[C@@H](Cc1ccc(N=C(N)N)cc1)C(=O)NCc1ccc(C(=N)N)c(F)c1)C(C)C [Compound B]
[ask] Quick one: lower IC50, A or B ? Indicate your choice by writing its label.
[reply] B
(B: 3.7 nM, A: 1200 nM)
